Below: a set of entries, each annotated with reported t½ at pH 7.4.
- test_target: SARS-COV-2 RBD-MMH (SARS-COV-2 RBD extracellular domain with C-terminal myc-myc-hexahistidine tag) (SARS-CoV-2)
Hi! Could you send only the number? It should be in min, unit omitted.

Past entries and their recorded results:
{"columns": ["binder", "unit_tag", "t½ at pH 7.4"],
 "data": [
  ["mAb14282 (antibody, V domains shown) VH: QVQLVQSGAEVKKPGASVKVSCKASGYIFTDHYMHWVRQAPGQGLEWMGWINPNSGATNYAQNFQGRVTMTRDTSIITVYMELSRLRSDDTAVYYCARDSSPYMIRYTMDVWGQGTTITVSS VL: QSALTQPASVSGSPGQSITISCTGTSSDVGSYNLVSWYQQHPGKAPKLMIYELTKRPSGVSNRFSGSKSGNTASLTISGLQAEDEADYYCSSYRGSVTDVVFGGGTKLTVLG", "min", 0.9],
  ["mAb15166 (antibody, V domains shown) VH: EVQLVESGGGLVQPGGSLRLSCAASGFTVTSNYMSWVRQAPGKGLEWVSAIYSGESTYYADSVKGRFTISRDSSKNTLYLQMNSLRVEDTAVYYCASIHDYSNYVGGFDPWGQGTLVTVSS VL: QSALTQPASVSGSPGQSITISCTGPSSDFGSYNLVSWYQQHPGKAPKLMIYEGTKRPSGVSNRFSGSKSGNTASLTISGLQAEDEADYYCSSYAGSSTWVFGGGTKLTVLG", "min", 0.4],
  ["mAb14256 (antibody, V domains shown) VH: QVQLQESGPGLVKPSETLSLTCTVSGGSISSHYWSWIRQPPGKGLEWIGYIYYSGSSNYNPSLKSRVTISVDTSKNQFSLKLNSVTAADTAVYYCARHYDILTGFDWFDPWGQGTLVTVSS VL: QSVLTQPPSVSGAPGQRVTISCTGSSSNIGTHYDVHWYQQLPGTAPKLLIYGNSNRPSGVPDRFSGSKSGTSASLAITGLQAEDEADYYCQSFDNSLTAPYVFGTGTKVTVLG", "min", 1],
  ["mAb15163 (antibody, V domains shown) VH: EVQLVETGGGLIQPGESLRLSCAASGFIVSTNYMNWVRQAPGKGLEWVSVIYRGGSTYYADSVKGRFTISRDNSKNTLFLQMNSLRAEDTAVYYCARGHEDFDYDTPASGAFDIWGQGTMVTVSS VL: QSALTQPPSASGSPGQSVTISCTGTSSDVGGHNYVSWYQQHPGKAPKVMIYEVSKRPSGVPDRFSGSKSGNTASLTVSGLQAEDEADYYCSSYAGSNKFVFGTGTKVTVLG", "min", 23.4],
  ["mAb15150 (antibody, V domains shown) VH: EVQLVETGGGLIQPGGSLRLSCAAPGFIVSSNYMSWVRQAPGKGLEWVSLLYPGGSTYYADSVKGRFTISRDNSKNTLYLQMNSLRADDTAVYYCARVLPIVEDHFDYWGQGTLVTVSS VL: DIQLTQSPSFLSASVGDRVTITCRASQGMSSYLAWYQKKPGKAPKLLIYGATILQSGVPSRFSGSGSGTEFTLTISSLQPEDFATYYCQQLNSDPLYMYTFGQGTKLEIKR", "min", 103],
  ["mAb13459 (antibody, V domains shown) VH: EVQLVESGGGLVQPGRSLRLSCAASGFTFDDYAMHWVRQAPGKGLEWVSGISWNSGSIGYADSVKGRFTISRDNAKNSLYLQMNSLRAEDTALYYCAKDIGITTPYWGQGTLVTVSS VL: AIQMTQSPSSLSASVGDRVTITCRASQDIRNDLGWYQQKPGKAPKLLIYSASSLQTGVPSRFSGSGSGTDFTLTISSLHPEDFATYYCLQDYNYVWTFGQGTKVEIKR", "min", 5.1]
]}

Return t½ at pH 7.4 (reported value) for this binder: mAb15158 (antibody, V domains shown) VH: EVQLVESGGGLVQPGGSLRLSCAASGFSFSSNWMSWVRQAPGKGLEWVGNINQDGSEKYYVDSVEGRFTISRDNAKKSLYLQMNSLRAEDTAVYYCARDLGVLWFGDFVDWGQGALVTVSS VL: DIQMTQSPSSLSASVGDRVTITCRASQAISNSLAWYQQKPGKAPKLLLYAASTLESGVPSRFSGSGSGTDYTLTISSLQPEDFATYYCLQYYGSPRTFGQGTKVEIKR 37

Name the recorded t½ at pH 7.4 of the item mAb14281 (antibody, V domains shown) VH: QVQLVQSGADVKKPGASVKVSCKTSGYIFTGYYIHWVRQAPGQGLEWMGWINPNSGGTNSAQKFQGRVTMTRDTSISTVYMELSRLRSDDTAVYYCAKSNSFSVLDYNFDYWGQGTLVTVSS VL: SSELTQDPAVSVALGQTVRITCQGDSLRSYYASWYQQKPGQAPVLVIYDKNNRPSGIPDRFSGSSSGNTASLTITGAQAEDEADYYCNSRDSSRNHLVVFGGGTKLTVLG in your answer. 1.8
